Biological target: Heat shock factor protein 1 (Homo sapiens)
Assay: ATG_HSE_CIS: Attagene CIS-FACTORIAL HepG2 Assay for human Heat Shock Transcription Factor 1 (HSE) (AID 2282953)
Conditions: HepG2 HSE cis-reporter, Attagene RNA transcription; actives raise or lower the signal
Calls of active or inactive are those of the source. How the source made its calls: active means hit-call score of the fitted dose curve at least 0.9, where 1 is the maximum; inactive means score below 0.9.
# valid calls are yes (1) (active), no (0) (inactive); nothing else

Answered examples (3):
{"columns": ["Compound", "Assigned class"],
 "data": [
  ["CCOP(=O)(OCC)OC(=CCl)c1ccc(Cl)cc1Cl", "no (0)"],
  ["CCN(CC)C(=O)C(Cl)=C(C)OP(=O)(OC)OC", "no (0)"],
  ["Cc1cc(SCc2sc(-c3ccc(C(F)(F)F)c(F)c3)nc2C)ccc1OCC(=O)O", "yes (1)"]
]}

Ask | Just curious, what result did O=[N+]([O-])c1cccc2ccccc12 get here?
Reply | no (0)

Ask | Now give it for Fc1cccc(Cl)c1CCl too.
Reply | yes (1)

Ask | Now this one: CCC[CH2][Sn]([CH2]CCC)([CH2]CCC)[CH2]CCC
Reply | yes (1)

Ask | Then O=C(NC(=O)c1c(F)cccc1F)Nc1cc(Cl)c(Oc2ncc(C(F)(F)F)cc2Cl)c(Cl)c1 ?
Reply | no (0)

Ask | Another compound: CCOP(=S)(OCC)OP(=S)(OCC)OCC
Reply | no (0)

Ask | Subsequent entry: Oc1c(Br)cc(Br)cc1Br
Reply | no (0)

Ask | Request: O=C1C=CC(=O)c2ccccc21
Reply | no (0)

Ask | Same lookup for CCOC(=O)C(SP(=S)(OC)OC)c1ccccc1 (centres undefined) , please.
Reply | no (0)

Ask | Same read-out for CC(C)(C1CCC(O)CC1)C1CCC(O)CC1 (centres undefined) ?
Reply | no (0)

Ask | Continue with ClCc1ccccc1CCl
Reply | yes (1)

----------
Assay: CCTE_Shafer_MEA_acute_burst_percentage_std: CCTE's Neural Acute Assay for Standard Deviation of Burst Percentage, Shafer Lab (AID 2284018);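 further: fitted in the negative direction so actives lower burst percentage SD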
The source made the active and inactive calls. The calls were made as follows: active = hit-call score of the fitted dose curve at least 0.9, where 1 is the maximum; inactive = score below 0.9.
Select the correct class. Options are true (1) = active, false (0) = inactive and nothing else.

See these solved cases before continuing.
{"columns": ["Given smiles", "Assigned class"],
 "data": [
  ["Oc1cc(Cl)c(Cl)cc1Cl", "true (1)"],
  ["O=C(Cc1ccccc1)OCCc1ccccc1", "false (0)"],
  ["OCCCCO", "false (0)"],
  ["CS(=O)(=O)c1ccc(C(=O)C2C(=O)CCCC2=O)c(Cl)c1COCC(F)(F)F", "false (0)"]
]}

Ask | Tell me the recorded outcome of this test for CCCCOC(=O)COC(=O)c1ccccc1C(=O)OCCCC .
Reply | false (0)

Ask | Ok, now N#Cc1cccnc1
Reply | false (0)

Ask | // same read-out, input: Oc1ccc(Cc2ccc(O)cc2)cc1
Reply | false (0)

Ask | // repeat for Clc1cccc(Cl)c1Cl and report
Reply | false (0)

Ask | Also CN(C)C(=S)S , if possible.
Reply | false (0)

----------
Read-out: urokinase plasminogen activator (uPA), PLAU (gene 5328)
Assay: BSK_KF3CT_uPA: BioMAP Diversity Plus: KF3CT Assay for urokinase plasminogen activator (uPA) Biomarker Activity (AID 2283075)
Settings: primary human keratinocytes with fibroblasts; actives raise or lower the signal
Procedure: BSK_KF3CT is a cell-based, multiplexed-readout assay that uses keratinocytes and foreskin fibroblasts, a human skin primary cell co-culture, with measurements taken at 24 hours after chemical dosing in a 96-well plate.BSK_KF3CTA is an assay component measured in the BSK_KF3CT assay. It measures uPA antibody related to regulation of gene expression using ELISA technology.Data from the assay component BSK_KF3CTA was analyzed into 1 assay endpoint. […]
The source made the active and inactive calls. The calls were made as follows: active = hit-call score of the fitted dose curve at least 0.9, where 1 is the maximum; inactive = score below 0.9.
Assay readout: AC50

{"columns": ["Compound", "AC50"],
 "data": [
  ["CCOC(=O)CC(=O)CCl", "inactive"],
  ["NC(=O)CCl", "inactive"],
  ["Oc1cc(Cl)c(Cl)cc1Cl", "inactive"],
  ["COCC(=O)N(c1c(C)cccc1C)[C@H](C)C(=O)OC", "inactive"],
  ["O=[N+]([O-])c1ccc(Nc2ccccc2)cc1", "inactive"]
]}

Required: AC50, one value per compound below.
1. c1ccc2sc(SNC3CCCCC3)nc2c1
2. COc1ccccc1N
3. CC(C)N(C(=O)CCl)c1ccccc1
4. CCOP(=S)(OCC)OP(=S)(OCC)OCC
5. C#CCOC(=O)/C=C(C)/C=C/CC(C)CCCC(C)C (centres undefined)
6. Cc1c([N+](=O)[O-])c(C)c([N+](=O)[O-])c(C(C)(C)C)c1[N+](=O)[O-]
7. OC(Cc1ccccc1Cl)(Cn1cncn1)C1(Cl)CC1 (centres undefined)
8. CCOC(=O)CCN(SN(C)C(=O)Oc1cccc2c1OC(C)(C)C2)C(C)C

Reply |
1: inactive; 2: inactive; 3: 33.3 µM (active); 4: inactive; 5: inactive; 6: inactive; 7: inactive; 8: inactive

Parameter requested: AC50. Apply to each item below.
1. CCC(C)(C#N)N=NC(C)(C#N)CC (centres undefined)
2. Oc1cccc(-c2ccccc2)c1
3. O=C(CCl)NCO
4. [Cl][Sn]([c]1ccccc1)([c]1ccccc1)[c]1ccccc1

Reply |
["inactive", "inactive", "inactive", "0.168 µM (active)"]

----------
Read-out: Interferon-gamma inducible Protein 10 (IP10), CXCL10 (gene 3627)
Assay: BSK_KF3CT_IP10: BioMAP Diversity Plus: KF3CT Assay for Interferon-gamma inducible Protein 10 (IP10) Biomarker Activity (AID 2283068)
Settings: primary human keratinocytes with fibroblasts; actives raise or lower the signal
The source made the active and inactive calls. How the source made its calls: active means hit-call score of the fitted dose curve at least 0.9, where 1 is the maximum; inactive means score below 0.9.
Assay readout: AC50

Some compounds with known AC50 results, for comparison:
{"columns": ["Given smiles", "Result value"],
 "data": [
  ["Cc1ccccc1OP(=O)(Oc1ccccc1C)Oc1ccccc1C", "14.7 µM (active)"],
  ["Clc1cccc(Cl)c1", "inactive"],
  ["Cc1ccccc1OP(=O)(Oc1ccccc1)Oc1ccccc1", "inactive"],
  ["OCCN(CCO)CCO", "inactive"]
]}

Record AC50 for all entries; do not skip any.
1. Oc1c(Br)cc(Br)cc1Br
2. CCOC(=O)CCN(SN(C)C(=O)Oc1cccc2c1OC(C)(C)C2)C(C)C
3. Oc1ccc(Cc2ccc(O)cc2)cc1

Reply |
1: 31.6 µM (active); 2: inactive; 3: inactive

----------
Target: Hepatocyte nuclear factor 6 (Homo sapiens) (UniProt Q9UBC0)
Sequence (Q9UBC0 whole entry, looked up): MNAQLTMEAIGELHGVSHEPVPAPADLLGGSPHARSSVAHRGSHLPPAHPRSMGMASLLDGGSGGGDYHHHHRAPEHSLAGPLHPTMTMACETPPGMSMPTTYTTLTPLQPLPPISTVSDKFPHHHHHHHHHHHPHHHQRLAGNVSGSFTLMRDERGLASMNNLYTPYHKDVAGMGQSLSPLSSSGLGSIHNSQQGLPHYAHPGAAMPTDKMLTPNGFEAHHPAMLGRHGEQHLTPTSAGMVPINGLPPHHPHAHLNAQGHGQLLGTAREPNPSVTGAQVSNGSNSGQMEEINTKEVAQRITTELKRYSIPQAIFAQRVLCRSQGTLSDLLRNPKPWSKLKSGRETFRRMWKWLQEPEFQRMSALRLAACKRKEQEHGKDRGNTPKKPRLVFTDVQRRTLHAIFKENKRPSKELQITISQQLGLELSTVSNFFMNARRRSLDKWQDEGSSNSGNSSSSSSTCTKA
Test: ATG_HNF6_CIS: Attagene CIS-FACTORIAL HepG2 Assay for human Hepatocyte Nuclear Factor 6 (HNF6) (AID 2282952)
Details: HepG2 Attagene cis-factorial HNF6 reporter transcription; actives raise or lower the signal
Protocol: ATG_CIS is a cell-based, multiplexed-readout assay that uses HepG2, a human liver cell line, with measurements taken at 24 hours after chemical dosing in a 24-well plate.ATG_HNF6_CIS is one of 52 assay component(s) measured or calculated from the ATG_CIS assay. […] This assay endpoint, ATG_HNF6_CIS, was analyzed with bidirectional fitting relative to DMSO as the negative control and baseline of activity. […]
The source made the active and inactive calls. The calls were made as follows: active = hit-call score of the fitted dose curve at least 0.9, where 1 is the maximum; inactive = score below 0.9.
Tick one outcome: Yes = active, No = inactive

Here are 3 compounds together with their reported answers.
{"columns": ["Compound", "Assay target", "Assigned class"],
 "data": [
  ["C[C@]12CC[C@@H](O)C[C@@H]1CC[C@@H]1[C@@H]2CC[C@]2(C)C(=O)CC[C@@H]12", "Hepatocyte nuclear factor 6 (Homo sapiens) (UniProt Q9UBC0)", "No"],
  ["Brc1ccc(Oc2c(Br)cc(Br)cc2Br)c(Br)c1", "Hepatocyte nuclear factor 6 (Homo sapiens) (UniProt Q9UBC0)", "No"],
  ["c1ccc2sc(SNC3CCCCC3)nc2c1", "Hepatocyte nuclear factor 6 (Homo sapiens) (UniProt Q9UBC0)", "No"]
]}

Ask | // param item: O=c1nc(O)n(Cl)c(=O)n1Cl ; yields the recorded call
Reply | No

----------
Read-out: Basic fibroblast growth factor (bFGF), FGF2 (gene 2247)
Experiment: BSK_MyoF_bFGF: BioMAP Diversity Plus: MyoF Assay for Basic fibroblast growth factor (bFGF) Biomarker Activity (AID 2284246)
Settings: primary human lung fibroblasts
Activity calls are given as the source filed them. Rule for the calls: active = hit-call score of the fitted dose curve at least 0.9, where 1 is the maximum; inactive = score below 0.9.
Your reply should match one of these outcome classes. y (active), n (inactive)

Previously resolved entries follow.
{"columns": ["Compound", "Assigned class"],
 "data": [
  ["O=C1C=CC(=O)c2ccccc21", "y"],
  ["O=S(=O)(c1ccc(Cl)cc1)c1cc(Cl)c(Cl)cc1Cl", "n"],
  ["O=[N+]([O-])c1ccc(Nc2ccccc2)cc1", "n"],
  ["CCOC(=O)CC(=O)CCl", "n"],
  ["Cc1cc(Cl)ccc1N", "n"],
  ["OC(Cc1ccccc1Cl)(Cn1cncn1)C1(Cl)CC1 (stereo not drawn)", "n"]
]}

Now look at this entry.
Ask | Entry CC(C=O)Cc1ccc2c(c1)OCO2 (stereo not drawn) : call = ?
Reply | n
